Test system: biotinyl-Leu-oxazolone
test: self-aminoacylation, catalytic enhancement (BLO) (fold over background); higher = more active; k-Seq, kA / k0A0; sequences stand for … in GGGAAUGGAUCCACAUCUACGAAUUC…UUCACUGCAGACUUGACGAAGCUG
Fewer inactive variants are shown than the library holds.
endpoint-name: self-aminoacylation
Number only, please.

INPUT: Look up self-aminoacylation: CGACUUCAAACAAUCGGUCAG [Fam1A.1 aminoacylation ribozyme variant]
OUTPUT: 0.772

INPUT: Any idea what self-aminoacylation was measured for GUUCACCUAGGUGAUCGGGUG [Fam2.2 aminoacylation ribozyme variant] ?
OUTPUT: 4.25

INPUT: Data request, read-out self-aminoacylation, for CUACAUCAAACAACCGGUCUG [Fam1A.1 aminoacylation ribozyme variant]
OUTPUT: 1.14

INPUT: Sample GUUCACCUAGGUCAGCGGGUG [Fam2.2 aminoacylation ribozyme variant] — what was its self-aminoacylation?
OUTPUT: 4.21

INPUT: Tell me the measured self-aminoacylation of AUUACCCUGGUCAUCGAGAGU [Fam2.1 aminoacylation ribozyme variant] , please.
OUTPUT: 0.822

INPUT: Fill blank: measured self-aminoacylation of the sequence AUUACCAUGGUGAUCGAGUGA [Fam2.1 aminoacylation ribozyme variant] is ____.
OUTPUT: 4.04

INPUT: # query: self-aminoacylation of entry CUACUAGAAACAAUCGGUCUG [Fam1A.1 aminoacylation ribozyme variant]
OUTPUT: 0.619

INPUT: Fill in the blank: the reported self-aminoacylation of CUACUUCAAACAAUCUUUCUG [Fam1A.1 aminoacylation ribozyme variant] is ____.
OUTPUT: 0.658

###

Test system: biotinyl-Val-oxazolone
test: self-aminoacylation, catalytic enhancement (BVO) (fold over background); higher = more active; k-Seq, kA / k0A0; sequences stand for … in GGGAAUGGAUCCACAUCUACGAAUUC…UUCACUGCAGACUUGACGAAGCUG
This sample holds only a part of the variants without activity.
Tick Met if self-aminoacylation is 2 or greater. Tick Not met if self-aminoacylation is less than 2.

INPUT: Decide: is the reported value of self-aminoacylation for CUACUUCUAACAAUCGGUCUC [Fam1A.1 aminoacylation ribozyme variant] equal to or greater than 2?
OUTPUT: Not met

INPUT: Hello, I need to know if AUUCAACUAGGUCAUCGCGUG [Fam2.2 aminoacylation ribozyme variant] has measured self-aminoacylation not below 2. Thanks!
OUTPUT: Met

INPUT: Could you please find out whether AAGUUUGCUGAUAGUCUCAAG [Fam3.1 aminoacylation ribozyme variant] has self-aminoacylation that meets 2 or exceeds it?
OUTPUT: Not met

INPUT: Threshold query (self-aminoacylation >= 2) on AUUCACCUAUGUCAUCGGGCG [Fam2.2 aminoacylation ribozyme variant]
OUTPUT: Met

INPUT: Is reported self-aminoacylation greater than or equal to 2 here: AUUACCCUGUUCAUCGAGUUA [Fam2.1 aminoacylation ribozyme variant]
OUTPUT: Not met

INPUT: Does ACUACCCUGGUCAUCGAGUGA [Fam2.1 aminoacylation ribozyme variant] have a reported self-aminoacylation of at least 2?
OUTPUT: Met

INPUT: Could you please find out whether AAUCACCUAGGUCAUCCGGUG [Fam2.2 aminoacylation ribozyme variant] has self-aminoacylation that meets 2 or exceeds it?
OUTPUT: Met

INPUT: I'd appreciate it if you could say whether AAGUUUGCUCAAAGUCGCAAG [Fam3.1 aminoacylation ribozyme variant] has self-aminoacylation at least equal to 2.
OUTPUT: Not met

INPUT: State whether the measured self-aminoacylation reaches 2, counting equality as reaching it, for AAAUGUGCUAAUAGUCGCAAG [Fam3.1 aminoacylation ribozyme variant]
OUTPUT: Not met

INPUT: Could you tell me if the measured self-aminoacylation of CUACGUCAAACUAUCGGUCUG [Fam1A.1 aminoacylation ribozyme variant] reaches 2 or more?
OUTPUT: Not met

INPUT: Evaluate CGACUUCUAACAAUCGGUCUG [Fam1A.1 aminoacylation ribozyme variant] : self-aminoacylation at minimum 2?
OUTPUT: Not met

INPUT: Could you verify whether the entry CCACACUUCACGCAAUCGGUU [Fam1B.1 aminoacylation ribozyme variant] shows self-aminoacylation of no less than 2?
OUTPUT: Not met

INPUT: Please tell me: is the sequence GGUCACCUAGGUCAUCGGGUG [Fam2.2 aminoacylation ribozyme variant] at or over 2 in terms of self-aminoacylation?
OUTPUT: Met

INPUT: Decide: is the reported value of self-aminoacylation for CCACACUGCAGGCAAUCGGUC [Fam1B.1 aminoacylation ribozyme variant] equal to or greater than 2?
OUTPUT: Met

INPUT: Check if self-aminoacylation >= 2 (inclusive). Item: AAGUUUGCUAAUAGUAGCACG [Fam3.1 aminoacylation ribozyme variant]
OUTPUT: Not met

INPUT: Does CUGCUUCAGACAAUCGGUCUG [Fam1A.1 aminoacylation ribozyme variant] have a reported self-aminoacylation of at least 2?
OUTPUT: Not met

INPUT: Quick check: does AUUCCUCUAGGUCAUCGGGUG [Fam2.2 aminoacylation ribozyme variant] have self-aminoacylation greater than or equal to 2?
OUTPUT: Met

INPUT: Given the entry CUACUUCAAAGAAUCGGUCUA [Fam1A.1 aminoacylation ribozyme variant] , answer whether its self-aminoacylation meets or surpasses 2.
OUTPUT: Not met

###

System: biotinyl-Trp-oxazolone
test: self-aminoacylation, catalytic enhancement (BWO) (fold over background); higher = more active; k-Seq, kA / k0A0; sequences stand for … in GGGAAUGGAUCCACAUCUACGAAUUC…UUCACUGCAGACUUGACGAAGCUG
This sample holds only a part of the variants without activity.
Hi there, I'd appreciate the recorded self-aminoacylation for every entry that follows.
Enter the number alone.

INPUT: I have this sequence here, AUUAUCCUGGUCAUCGAGAGA [Fam2.1 aminoacylation ribozyme variant] , and I need its recorded self-aminoacylation.
OUTPUT: 0.862

INPUT: Bench note: what self-aminoacylation did AUUGCCCUGGUUAUCGAGUGA [Fam2.1 aminoacylation ribozyme variant] show?
OUTPUT: 10.7

INPUT: Fill blank: measured self-aminoacylation of the sequence AUUUCCCUGGUCUUCGAGUGA [Fam2.1 aminoacylation ribozyme variant] is ____.
OUTPUT: 9.21

INPUT: Find the recorded self-aminoacylation belonging to AUUACCCUGGUCAUCGCGUCA [Fam2.1 aminoacylation ribozyme variant] and report it.
OUTPUT: 2.27

INPUT: Any idea what its self-aminoacylation is? The sequence is AUUACUCUGGACAUCGAGUGA [Fam2.1 aminoacylation ribozyme variant]
OUTPUT: 8.33

INPUT: Recorded self-aminoacylation of CUACUUCAAACAAUCGGUCGU [Fam1A.1 aminoacylation ribozyme variant] , please.
OUTPUT: 10.3

INPUT: Entry under review: AUUACCCUGGUUAUCUAGUGA [Fam2.1 aminoacylation ribozyme variant] . Reported self-aminoacylation?
OUTPUT: 17.6

INPUT: Endpoint output: self-aminoacylation of CUACUUGGAACAAUCGGUCUG [Fam1A.1 aminoacylation ribozyme variant] . Value?
OUTPUT: 0.642

INPUT: Value lookup for self-aminoacylation; key = CUACAGUUCAAGCAAUCGGUC [Fam1B.1 aminoacylation ribozyme variant]
OUTPUT: 2.96

INPUT: // lookup self-aminoacylation for AUUACCCUGGUGAUCGAGUGU [Fam2.1 aminoacylation ribozyme variant]
OUTPUT: 2.96

INPUT: Reported self-aminoacylation, sequence AAUUUUGCUAAUAGUCGGAAG [Fam3.1 aminoacylation ribozyme variant] : ____
OUTPUT: 1.2

INPUT: Could you tell me which self-aminoacylation is on file for UCAUACUUCAAGCAAUCGGUC [Fam1B.1 aminoacylation ribozyme variant] ?
OUTPUT: 9.74

INPUT: So what does the record say about self-aminoacylation for AUCCACCUAGGUCAUCCGGUG [Fam2.2 aminoacylation ribozyme variant] ?
OUTPUT: 7.83

INPUT: Which measured self-aminoacylation value corresponds to AUUACACUGGUCAUGGAGUGA [Fam2.1 aminoacylation ribozyme variant] ?
OUTPUT: 2.06

INPUT: Value lookup for self-aminoacylation; key = AUUACCCUGGUCAUCGAGAGA [Fam2.1 aminoacylation ribozyme variant]
OUTPUT: 1.46

INPUT: What value of self-aminoacylation has been reported for the following sequence? AAGUUCGCUUAUAGUCGCAAG [Fam3.1 aminoacylation ribozyme variant]
OUTPUT: 2.23

INPUT: Requested field: self-aminoacylation. Item: CUACUUCAAAUAAUCGGGCUG [Fam1A.1 aminoacylation ribozyme variant]
OUTPUT: 3.35

INPUT: self-aminoacylation lookup needed for CUUAACCUGGUCAUCGAGUGA [Fam2.1 aminoacylation ribozyme variant] , thanks.
OUTPUT: 6.88

INPUT: Find the recorded self-aminoacylation belonging to AUGCACCUAGGUCAUCGGCUG [Fam2.2 aminoacylation ribozyme variant] and report it.
OUTPUT: 2.5

INPUT: Consider the sequence shown here: AUUACUCUGGUCAUCUAGUGA [Fam2.1 aminoacylation ribozyme variant] What is its recorded self-aminoacylation?
OUTPUT: 11.4

INPUT: # self-aminoacylation lookup, item AUUACCCUGGUGAUCGAUUGA [Fam2.1 aminoacylation ribozyme variant]
OUTPUT: 0.834

INPUT: Which self-aminoacylation is reported for this sequence? CUACUCCAAACAAUCGGUCUU [Fam1A.1 aminoacylation ribozyme variant]
OUTPUT: 1.2

INPUT: Which self-aminoacylation value belongs to CCACACUUCAAGCAAUCUAUC [Fam1B.1 aminoacylation ribozyme variant] ?
OUTPUT: 0.287

INPUT: Using the record for AAGUUUGUUAAUAGUCUCAAG [Fam3.1 aminoacylation ribozyme variant] , report its self-aminoacylation.
OUTPUT: 1.23

INPUT: Consider the sequence CUACUUCAAACAAUCGGGCUC [Fam1A.1 aminoacylation ribozyme variant] and give its measured self-aminoacylation.
OUTPUT: 2.48

INPUT: Request the reported self-aminoacylation associated with AUGUUUGCUAAUAGCCGCAAG [Fam3.1 aminoacylation ribozyme variant]
OUTPUT: 1.36

INPUT: Query (sequence): CCACACUUCACGCAAACGGUC [Fam1B.1 aminoacylation ribozyme variant] ; field requested: self-aminoacylation
OUTPUT: 0.98

INPUT: What value of measured self-aminoacylation is listed for CUAGUUCAAACAAUGGGUCUG [Fam1A.1 aminoacylation ribozyme variant] ?
OUTPUT: 0.678

INPUT: Form field: reported self-aminoacylation of AAGUAAGCUAAUAGUCGCAAG [Fam3.1 aminoacylation ribozyme variant]
OUTPUT: 1.5

INPUT: self-aminoacylation lookup needed for AUUACCCUGGUCAUCGAGUUG [Fam2.1 aminoacylation ribozyme variant] , thanks.
OUTPUT: 1.47

INPUT: For the sequence shown here, CGACACUUCGAGCAAUCGGUC [Fam1B.1 aminoacylation ribozyme variant] , give the reported self-aminoacylation.
OUTPUT: 0.998

INPUT: Fill in the blank: the reported self-aminoacylation of CCACACUUCAAUCAAUCGGUU [Fam1B.1 aminoacylation ribozyme variant] is ____.
OUTPUT: 5.87

INPUT: Returns the measured self-aminoacylation for the input sequence. Input: CCACCUUUCAAGCAAUCGGUC [Fam1B.1 aminoacylation ribozyme variant]
OUTPUT: 1.97

INPUT: What value of measured self-aminoacylation is listed for AAGUUUGCAAGUAGUCGCAAG [Fam3.1 aminoacylation ribozyme variant] ?
OUTPUT: 1.06

INPUT: Look at this sequence and give its reported self-aminoacylation. AUUACCCUCCUCAUCGAGUGA [Fam2.1 aminoacylation ribozyme variant]
OUTPUT: 4.74

These measurements were taken from the supplement of paper PMC9233669.
